Form field: IC50 (one value per entry).
Target: DNA dC->dU-editing enzyme APOBEC-3G (Homo sapiens);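 note: Dose-response counterscreen measuring inhibition of APOBEC3G DNA deaminase activity, run while confirming APOBEC3A inhibitors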
Sequence (Q9HC16 whole entry): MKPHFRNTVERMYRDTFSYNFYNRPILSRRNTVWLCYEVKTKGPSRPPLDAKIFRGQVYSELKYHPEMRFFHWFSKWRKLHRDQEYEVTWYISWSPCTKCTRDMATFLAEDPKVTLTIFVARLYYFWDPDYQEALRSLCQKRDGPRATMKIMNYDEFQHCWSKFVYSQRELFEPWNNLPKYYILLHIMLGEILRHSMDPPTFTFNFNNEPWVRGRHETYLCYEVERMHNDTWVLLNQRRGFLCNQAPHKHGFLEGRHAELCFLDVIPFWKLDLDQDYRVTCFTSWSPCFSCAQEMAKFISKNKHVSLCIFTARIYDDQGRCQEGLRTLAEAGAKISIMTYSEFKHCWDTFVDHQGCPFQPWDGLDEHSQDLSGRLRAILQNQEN
Format: functional
Active and inactive are the calls of the source.

Below, each entry is followed by its recorded IC50 result.
{"columns": ["compound", "target_desc", "assay_result"],
 "data": [
  ["O=C(NCc1ccc2c(c1)OCO2)c1cc2ncc(Br)cn2n1", "DNA dC->dU-editing enzyme APOBEC-3G (Homo sapiens)", "56.5 µM (active)"],
  ["CC(C)C(NC(=O)c1ccc2c(c1)OCO2)C(=O)N/N=C\\c1ccco1 (stereo not drawn)", "DNA dC->dU-editing enzyme APOBEC-3G (Homo sapiens)", "15.9 µM (active)"]
]}

Note IC50 for the compound shown: CSc1nnc(SCc2nc3sc(C(=O)O)c(C)c3c(=O)[nH]2)s1
24.6 µM (active)
